# ASSAYED TARGET: human TREM2 (Homo sapiens)
# Construct: expressed in transfected cells; host or cells: HEK293T-hTREM2 cells (HEK cell line expressing human TREM2 and DAP12)
# Sequence (Q9NZC2 19-230): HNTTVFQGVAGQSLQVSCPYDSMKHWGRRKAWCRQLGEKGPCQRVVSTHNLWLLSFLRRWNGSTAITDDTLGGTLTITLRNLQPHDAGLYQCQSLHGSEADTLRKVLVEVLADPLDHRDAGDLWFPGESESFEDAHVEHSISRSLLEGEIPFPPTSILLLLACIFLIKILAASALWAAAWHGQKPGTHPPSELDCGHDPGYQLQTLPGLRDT
# Sequence (O43914 22-113 partner): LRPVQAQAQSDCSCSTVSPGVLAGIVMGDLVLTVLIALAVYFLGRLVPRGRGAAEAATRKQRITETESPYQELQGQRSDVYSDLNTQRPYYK
# PROTOCOL DESCRIPTION: In vitro measurement of TREM2 activity using cellular phosphorylation of spleen tyrosine kinase (Syk), AlphaLisa, HEK293T-hTREM2 cells
# Assay type: cell-based
# CONDITIONS: HEK293T cells expressing human TREM2 and DAP12, 45 min at room temperature, Table D-2
Below is a list of entries, each paired with its recorded EC50 value.

Completed entries (count: 3):
{"TEST SMILES": "C[C@H]1c2c(cc(-c3ccc(Cl)cc3F)nc2-c2ccc(Cl)cc2F)C(=O)N1C", "ASSAYED TARGET": "human TREM2 (Homo sapiens)", "EC50": "3 to 100 µM"}
{"TEST SMILES": "CCN1Cc2c(cc(N3CCO[C@@H](c4cnn(C)c4)C3)nc2-c2ccc(Cl)cc2F)C1=O", "ASSAYED TARGET": "human TREM2 (Homo sapiens)", "EC50": "0.05 to 0.5 µM"}
{"TEST SMILES": "CN1Cc2c(cc(N3CCO[C@@H](c4cnn(C)c4)C3)nc2-c2ccc(F)cc2F)C1=O", "ASSAYED TARGET": "human TREM2 (Homo sapiens)", "EC50": "0.5 to 3 µM"}

Read the next record carefully.
Incoming: Need EC50, item "Cc1cc([C@H]2CN(c3cc4c(c(-c5ccc(Cl)cc5F)n3)[C@H](C)N(C)C4=O)CCO2)ccn1"
Outgoing: 3 to 100 µM
